Molecular target: cloned human or rodent CNS receptors, channels, and transporters (PDSP panel) (Homo sapiens, UniProt Q01959)
Construct: expressed in transfected cells
Sequence (Q01959 whole entry): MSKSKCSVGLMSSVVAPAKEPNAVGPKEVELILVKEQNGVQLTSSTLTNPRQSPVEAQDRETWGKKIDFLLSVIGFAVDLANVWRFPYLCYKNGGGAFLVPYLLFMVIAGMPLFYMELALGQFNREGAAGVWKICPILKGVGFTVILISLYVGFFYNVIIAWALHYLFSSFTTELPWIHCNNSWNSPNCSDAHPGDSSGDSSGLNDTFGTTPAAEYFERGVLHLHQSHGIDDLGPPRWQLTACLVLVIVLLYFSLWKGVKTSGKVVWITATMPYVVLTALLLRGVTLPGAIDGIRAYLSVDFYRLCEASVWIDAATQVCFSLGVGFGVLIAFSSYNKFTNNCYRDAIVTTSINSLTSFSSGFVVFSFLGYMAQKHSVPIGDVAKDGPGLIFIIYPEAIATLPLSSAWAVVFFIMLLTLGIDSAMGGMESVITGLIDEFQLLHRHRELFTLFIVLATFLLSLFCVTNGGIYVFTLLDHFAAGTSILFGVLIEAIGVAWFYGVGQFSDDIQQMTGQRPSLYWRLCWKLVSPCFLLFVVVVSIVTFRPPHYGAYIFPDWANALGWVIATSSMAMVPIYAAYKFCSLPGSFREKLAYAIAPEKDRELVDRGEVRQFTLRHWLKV
Assay: PDSP GPCR panel primary binding assays at 10 μM
Conditions: DAT; primary assay, replicate 1
measured-property: Inhibition 1 (%)
API: value field is a number in %; no unit string.

// Inhibition 1 lookup, compound = CNc1nc(C)nc(N[C@H]2CCC[C@@H](C(=O)NCc3ccc(C#N)cc3C(F)(F)F)C2)n1 [UNC10302679A, GSK2256294A] , result: 56.61

---
Entry O=c1oc2ccccc2cc1-c1cn2cc(Cc3ccc(F)cc3)sc2n1 [UNC10302680A, iMDK] — recorded Inhibition 1 = 19.55

Entry O=C(NC1CC1)C(=O)C(Cc1ccccc1)NC(=O)[C@H]1CCC(=O)N1Cc1ccccc1 (some centres unmarked) [UNC10302676A, ABT-957 (Alicapistat)] , Inhibition 1 reported as 25.06

For reference, reported Inhibition 1 for CCC(=O)N1CCC(NC(=O)Nc2ccc(OC(F)(F)F)cc2)CC1 [UNC10302681A, TPPU] stands at 71.52

Entry CC(=O)N1CCC(NC(=O)NC23CC4CC(CC(C4)C2)C3)CC1 [UNC10302683A, AR9281] ; Inhibition 1 = 78.11

###

Target: cloned human or rodent CNS receptors, channels, and transporters (PDSP panel) (Rattus norvegicus)
Construct: expressed in transfected cells
Sequence (Q5U3Y7 whole entry): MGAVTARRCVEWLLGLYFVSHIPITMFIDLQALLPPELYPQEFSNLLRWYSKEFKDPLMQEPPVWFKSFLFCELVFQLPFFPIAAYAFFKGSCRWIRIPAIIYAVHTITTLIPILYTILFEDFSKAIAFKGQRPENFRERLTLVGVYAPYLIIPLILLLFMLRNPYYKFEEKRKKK
Experiment: PDSP GPCR panel primary binding assays at 10 μM
Conditions: Sigma 2; primary assay, replicate 2
measured-property: Inhibition 2 (%)
Write the number in % without appending the unit.

Completed entries (count: 3):
Reported Inhibition 2 for O=C(NC1CC1)C(=O)C(Cc1ccccc1)NC(=O)[C@H]1CCC(=O)N1Cc1ccccc1 (stereo partly shown) [UNC10302676A, ABT-957 (Alicapistat)] was 3.8

response.value for CC(=O)N1CCC(NC(=O)NC23CC4CC(CC(C4)C2)C3)CC1 [UNC10302683A, AR9281] (field: Inhibition 2) = -8.68

Form: molecule = CNc1nc(C)nc(N[C@H]2CCC[C@@H](C(=O)NCc3ccc(C#N)cc3C(F)(F)F)C2)n1 [UNC10302679A, GSK2256294A] ; Inhibition 2 = 19.97

Next:
# Inhibition 2 of CCC(=O)N1CCC(NC(=O)Nc2ccc(OC(F)(F)F)cc2)CC1 [UNC10302681A, TPPU] = 18.26

###

Target: cloned human or rodent CNS receptors, channels, and transporters (PDSP panel) (Homo sapiens, UniProt P11229)
Construct: expressed in transfected cells
Sequence (P11229 whole entry): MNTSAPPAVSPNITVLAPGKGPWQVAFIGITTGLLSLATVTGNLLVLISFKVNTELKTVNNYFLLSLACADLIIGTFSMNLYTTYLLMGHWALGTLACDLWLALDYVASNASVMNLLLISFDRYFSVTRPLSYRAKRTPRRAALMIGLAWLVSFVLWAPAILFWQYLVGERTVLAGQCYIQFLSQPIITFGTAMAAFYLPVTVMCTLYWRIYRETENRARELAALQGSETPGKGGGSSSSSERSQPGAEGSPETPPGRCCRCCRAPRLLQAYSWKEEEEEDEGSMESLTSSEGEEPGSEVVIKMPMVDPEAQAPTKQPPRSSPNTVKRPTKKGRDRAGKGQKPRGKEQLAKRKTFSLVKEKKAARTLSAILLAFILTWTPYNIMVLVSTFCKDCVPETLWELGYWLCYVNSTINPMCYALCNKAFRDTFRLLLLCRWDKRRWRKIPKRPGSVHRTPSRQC
Experiment: PDSP GPCR panel primary binding assays at 10 μM
Conditions: M1; primary assay, replicate 2
measured-property: Inhibition 2 (%)
Just the number please, in %, no unit attached.

Looking up CCC(=O)N1CCC(NC(=O)Nc2ccc(OC(F)(F)F)cc2)CC1 [UNC10302681A, TPPU] , I found its Inhibition 2 recorded as -16.27

More entries:
Query CC(=O)N1CCC(NC(=O)NC23CC4CC(CC(C4)C2)C3)CC1 [UNC10302683A, AR9281] yields Inhibition 2 of 6.49

get_value(item= CNc1nc(C)nc(N[C@H]2CCC[C@@H](C(=O)NCc3ccc(C#N)cc3C(F)(F)F)C2)n1 [UNC10302679A, GSK2256294A] , readout=Inhibition 2) returns -4.99

Just so you know, measured Inhibition 2 for O=c1oc2ccccc2cc1-c1cn2cc(Cc3ccc(F)cc3)sc2n1 [UNC10302680A, iMDK] came out at 2.54

Data point: O=C(NC1CC1)C(=O)C(Cc1ccccc1)NC(=O)[C@H]1CCC(=O)N1Cc1ccccc1 (some centres unmarked) [UNC10302676A, ABT-957 (Alicapistat)] ; Inhibition 2 = -15.33

The reported numbers originate from paper PMC9005681.
